Data credit: ChEMBL document CHEMBL1122088

- STUDY_TARGET: Pepsin A (Sus scrofa, UniProt P00791)
- Sequence (P00791 whole entry): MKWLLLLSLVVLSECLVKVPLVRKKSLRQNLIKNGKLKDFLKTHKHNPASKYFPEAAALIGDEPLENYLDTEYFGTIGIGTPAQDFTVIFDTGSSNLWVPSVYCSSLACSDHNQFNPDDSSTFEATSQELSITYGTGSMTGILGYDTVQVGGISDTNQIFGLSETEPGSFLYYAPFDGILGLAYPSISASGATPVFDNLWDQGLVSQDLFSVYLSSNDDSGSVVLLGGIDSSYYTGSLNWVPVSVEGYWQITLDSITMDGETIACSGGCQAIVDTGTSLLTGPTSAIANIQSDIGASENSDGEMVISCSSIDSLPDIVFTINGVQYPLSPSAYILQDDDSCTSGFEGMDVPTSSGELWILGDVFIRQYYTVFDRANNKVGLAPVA
MEASURE: Ki (nM)

(a) CC(C)CCNC(=O)[C@H](C)NC(=O)C[C@H](O)[C@H](CC(C)C)NC(=O)[C@@H](NC(=O)CC(C)C)C(C)C
(b) CCC(CC)C(=O)N[C@H](C(=O)N[C@@H](CC(C)C)[C@@H](O)CC(=O)N[C@@H](C)C(=O)NCCC(C)C)C(C)C
## Task Pick one: a or b . Which has the bigger Ki number? State the label of the item chosen.
## Result a
